Hello, the source for this data is patent US10662171B2, in case you need it.

# test.system: human GPR40 (Homo sapiens, UniProt O14842)
# Construct: expressed in transfected cells; host or cells: HEK cells stably expressing the aequorin reporter
# Sequence (O14842 whole entry): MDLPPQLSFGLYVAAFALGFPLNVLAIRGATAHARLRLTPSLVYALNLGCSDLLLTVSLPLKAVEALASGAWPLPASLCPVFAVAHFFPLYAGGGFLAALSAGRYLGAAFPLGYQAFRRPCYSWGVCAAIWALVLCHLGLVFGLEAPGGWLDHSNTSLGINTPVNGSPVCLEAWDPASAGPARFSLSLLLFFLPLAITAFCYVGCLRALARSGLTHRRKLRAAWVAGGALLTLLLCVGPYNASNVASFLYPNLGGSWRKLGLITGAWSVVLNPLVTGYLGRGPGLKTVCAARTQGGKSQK
# protocol.details: Inositol Phosphate Turnover (IP1) Assay 2
# Format: cell-based
# experimental.conditions: HEK cells stably expressing human GPR40; compound acoustically transferred; 60 minutes at 37 degrees
measured.attribute: log10(EC50) (log10 of the value in nM)
Answers are given as log10 of EC50 in nM.

The cases that follow already have their log10(EC50) on record.
molecule: COc1cc(-c2ccc(C3CCc4ccc(C(C5CC5)C(C)C(=O)O)cc4C3)c(F)c2)ccn1 (single isomer, unassigned) [Example 36]
measured.value: 0.68

molecule: COc1cc(-c2ccc(C3=Cc4cc([C@@H](C5CC5)[C@@H](C)C(=O)O)ccc4CC3)c(F)c2)ccn1 (single isomer, unassigned)
measured.value: 0.58

molecule: COc1cc(-c2ccc([C@H]3Cc4cc([C@H](C5CC5)[C@H](C)C(=O)O)ccc4CO3)c(F)c2)ccn1 [Example 38B]
measured.value: 1.39

# map each molecule to its log10(EC50)
1. COc1cc(-c2ccc(C3=Cc4cc([C@H](C5CC5)[C@H](C)C(=O)O)ccc4CC3)c(F)c2)ccn1 (single isomer, unassigned)
2. COc1cc(-c2ccc(C3=Cc4cc([C@@H](C5CC5)[C@H](C)C(=O)O)ccc4CC3)c(F)c2)ccn1 (single isomer, unassigned)
3. COc1cc(-c2ccc(C3CCc4ccc(C(C5CC5)C(C)C(=O)O)cc4C3)c(F)c2)ccn1 (single isomer, unassigned) [Example 35]
4. COc1cc(-c2ccc(C3=Cc4cc([C@H](C5CC5)[C@@H](C)C(=O)O)ccc4CC3)c(F)c2)ccn1 (single isomer, unassigned)
5. COc1cc(-c2ccc(C3Cc4cc([C@H](C5CC5)[C@H](C)C(=O)O)ccc4CO3)cc2)c(F)cn1 (single isomer, unassigned) [Example 39B]
6. COc1cc(-c2ccc(C3COc4ccc([C@H](C5CC5)[C@H](C)C(=O)O)cc4C3)c(F)c2)ccn1 (single isomer, unassigned) [Example 18]

-0.30
3.60
2.41
1.45
0.72
0.91

Below are 3 molecules. Give each one its log10(EC50).
1. COc1ccc(F)c(-c2ccc([C@@H]3Cc4cc([C@H](C5CC5)[C@H](C)C(=O)O)ccc4CO3)cc2)c1
2. COc1cc(-c2ccc(C3Cc4cc([C@H](C5CC5)[C@H](C)C(=O)O)ccc4CO3)cc2)c(F)cn1 (single isomer, unassigned) [Example 39A]
3. COc1cc(-c2ccc(C3CCc4ccc(C(C5CC5)C(C)C(=O)O)cc4C3)c(F)c2)ccn1 (single isomer, unassigned) [Example 34]

[-0.68, -0.12, 1.11]

---

I'd be grateful if you could share measured EC50 for these entries.
# test.system: human GPR40 (Homo sapiens, UniProt O14842)
# Construct: expressed in transfected cells; host or cells: HEK cells stably expressing the aequorin reporter
# protocol.details: Inositol Phosphate Turnover (IP1) Assay 1
# Assay type: cell-based
# experimental.conditions: HEK cells stably expressing human GPR40; compound transferred via pocket tip; 60 minutes at 37 degrees
Answers are plain numbers, in nM.

Below are worked cases with known answers.
compound: COc1cc(-c2ccc(C3COc4ccc([C@H](C5CC5)[C@H](C)C(=O)O)cc4C3)cc2)ccn1 (single isomer, unassigned) [Example 16]
units: nM
EC50: 12
--
compound: COc1ccc(F)c(-c2ccc(C3COc4ccc(C(CC(=O)O)C5CC5)cc4C3)cc2)c1 (single isomer, unassigned) [Example 5]
units: nM
EC50: 106

Answer with the recorded EC50 of COc1ccc(F)c(-c2ccc(C3COc4ccc([C@H](C5CC5)[C@H](C)C(=O)O)cc4C3)cc2)c1 (single isomer, unassigned) [Example 7] only.
3
